Property: GI50; scope: individual molecules
- System: NCI-H522
- ASSAY_COMMENT: NCI tumour cell line growth inhibition, 48 h
Activity calls are given as the source filed them. No stated cut-off is given here; in the data, active = GI50 up to about 1.1 µM and inactive = higher.
ASSAY_METRIC: GI50

molecule=N#CC1(C#N)[C@@H]2CCC=C(Sc3ccccc3)[C@@H]21 measured_result="10.8 µM (inactive)"
molecule="N#CSCC1COc2ccccc2O1 (centres undefined)" measured_result="2.62 µM (inactive)"
molecule="Cc1ccc(OC2CC(n3cnc4ncnc(Cl)c43)OC2Oc2ccc(C)cc2)cc1 (centres undefined)" measured_result="5.36 µM (inactive)"
molecule=Nc1n[n+]([O-])c2cc([N+](=O)[O-])ccc2[n+]1[O-] measured_result="2.07 µM (inactive)"
molecule=Cc1ccc(C(=O)NC(C)(C)C)cc1/N=N/N(C)C measured_result="50.5 µM (inactive)"
molecule=COc1ccc2c3ccc4c(c3n(C)c2c1)C(=O)c1ccccc1C4=O measured_result="> 100 µM (inactive)"
molecule=C[n+]1cccc(NC(=O)c2ccc(NC(=O)C34CCC(C(=O)Nc5ccc(C(=O)Nc6ccc[n+](C)c6)cc5)(CC3)CC4)cc2)c1 measured_result="5.42 µM (inactive)"
molecule=Nc1nc(Nc2ccccc2)sc1C(=O)c1cccs1 measured_result="11 µM (inactive)"
molecule=CCOC(=O)N1C=CC(=C2C(=C3C=CN(C(=O)OCC)C=C3)C(=C3C=CN(C(=O)OCC)C=C3)C2=C2C=CN(C(=O)OCC)C=C2)C=C1 measured_result="19.1 µM (inactive)"
molecule="O=C1C2C(C(=O)N1OS(=O)(=O)c1ccccc1)N(Cc1ccccc1)C(=O)N2Cc1ccccc1 (centres undefined)" measured_result="> 100 µM (inactive)"
molecule=COc1cc2c(cc1OC)-c1c(cc(OC)c(OC)c1OC)C2=O measured_result="49 µM (inactive)"
molecule="N#CC1C(=O)Nc2sc(C(=O)c3ccc(Br)cc3)c(N)c2C12CCCCC2 (centres undefined)" measured_result="18.3 µM (inactive)"
molecule=O=C(Nc1ccc(C2=NCCN2)cc1)c1cncc(C(=O)Nc2ccc(C3=NCCN3)cc2)c1 measured_result="> 100 µM (inactive)"
molecule=O=c1c2c3c(sc2nc2n1N=CN(c1ccc(Cl)cc1)C2)CCCC3 measured_result="10.5 µM (inactive)"

----------
- Test system: CAKI-1
- ASSAY_COMMENT: NCI tumour cell line growth inhibition, 48 h
Calls of active or inactive are those of the source. Cut-off read from the data, not from the text of the source: active = GI50 up to about 1.1 µM and inactive = higher.
ASSAY_METRIC: GI50

molecule=C(=C\c1cccc(/C=C/c2ccccn2)n1)/c1ccccn1 tested_target=CAKI-1 measured_result="50.7 µM (inactive)"
molecule="COc1ccc(/N=C(/C[S+]([O-])c2ccc(C)cc2)C(F)(F)F)cc1 (configuration not stated)" tested_target=CAKI-1 measured_result="> 100 µM (inactive)"
molecule="O=C1C2C(C(=O)N1OS(=O)(=O)c1ccccc1)N(Cc1ccccc1)C(=O)N2Cc1ccccc1 (configuration not stated)" tested_target=CAKI-1 measured_result="> 100 µM (inactive)"
molecule=COc1ccc(/C=C2\N=C3N(Cc4ccccc4)C=C(N)N3C2=O)cc1 tested_target=CAKI-1 measured_result="> 100 µM (inactive)"
molecule="CCCCN1C(=O)C2c3[nH]c4ccccc4c3C3CCCCC3C2C1=O.CCCCN1C(=O)C2c3[nH]c4ccccc4c3[C@@H]3CCCCC3C2C1=O (configuration not stated)" tested_target=CAKI-1 measured_result="6.18 µM (inactive)"
molecule="CC(C)[Si](OCC1CC(C[C@H]2CC(C[C@H]3C[C@@H](CO[Si](C(C)C)(C(C)C)C(C)C)OC(C)(C)O3)OC(C)(C)O2)OC(C)(C)O1)(C(C)C)C(C)C (some centres not stated)" tested_target=CAKI-1 measured_result="> 100 µM (inactive)"
molecule="CC(=O)O/C(=C(/C#N)C(=O)O)C1C(C(=O)O)C(c2ccccc2[N+](=O)[O-])C=C(c2ccco2)N1c1ccncc1 (configuration not stated)" tested_target=CAKI-1 measured_result="4.3 µM (inactive)"
